System tested: human plasma kallikrein (Homo sapiens, UniProt P03952)
Sequence (P03952 391-638 limits assumed): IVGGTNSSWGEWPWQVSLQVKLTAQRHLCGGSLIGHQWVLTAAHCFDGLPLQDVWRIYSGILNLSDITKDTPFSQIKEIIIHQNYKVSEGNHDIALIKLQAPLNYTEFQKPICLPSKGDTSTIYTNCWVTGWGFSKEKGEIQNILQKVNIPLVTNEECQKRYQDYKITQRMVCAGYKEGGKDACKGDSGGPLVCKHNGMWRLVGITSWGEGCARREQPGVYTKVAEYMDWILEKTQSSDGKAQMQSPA
Sequence (P03952 20-390 partner limits assumed): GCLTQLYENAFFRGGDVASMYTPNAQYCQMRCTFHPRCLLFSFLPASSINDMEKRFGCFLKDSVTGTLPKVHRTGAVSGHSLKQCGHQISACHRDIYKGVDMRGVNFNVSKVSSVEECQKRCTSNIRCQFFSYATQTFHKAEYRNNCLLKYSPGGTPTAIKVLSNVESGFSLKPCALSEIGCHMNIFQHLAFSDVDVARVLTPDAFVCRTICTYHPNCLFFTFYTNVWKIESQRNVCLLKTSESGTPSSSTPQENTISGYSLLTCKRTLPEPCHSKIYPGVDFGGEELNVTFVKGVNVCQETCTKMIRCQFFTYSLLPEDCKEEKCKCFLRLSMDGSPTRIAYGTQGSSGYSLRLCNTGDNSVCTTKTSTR
Test method notes: Kallikrein inhibition FLINT assay with quenched AMC peptide substrate Z-Gly-Pro-Arg-AMC (end point EP or kinetic KIN reads)
Type: biochemical
Protocol conditions: kinetic reads at 5 min intervals over 30 min; read-out: Kallikrein (KIN) IC50
pIC50: −log10 of the molar value.
Outcome measure: pIC50

Compound | System tested | pIC50
[O-][n+]1cc(-c2c(-n3cnnn3)ccc(Cl)c2F)ccc1[C@@H](Cc1ccc(F)cc1)n1cc(-c2cnnn2C(F)F)cn1 | human plasma kallikrein (Homo sapiens, UniProt P03952) | 8.40

(I) NC(=O)c1ccc(-c2cnn(C(Cc3ccn(C(F)F)n3)c3ccc(-c4cc(Cl)ccc4-n4cc(C(F)(F)F)nn4)c[n+]3[O-])c2)cc1F (single isomer, unassigned)
(II) [O-][n+]1cc(-c2c(-n3cnnn3)ccc(Cl)c2F)ccc1C(CC1CC1)n1cc(-c2ccnc(F)c2)cn1 (single isomer, unassigned)
(III) O=C(O)c1ccc(-c2cnn(C(Cc3ccc(F)cc3)c3ccc(-c4cc(Cl)ccc4-n4cnnn4)c[n+]3[O-])c2)cc1 (centres unmarked)
(IV) COC(=O)Nc1ccc(-c2cnn(C(CC3CCCCO3)c3ccc(-c4c(-n5cnnn5)ccc(Cl)c4F)c[n+]3[O-])c2)cc1 (single isomer, unassigned) [Example P115]
(V) COc1cc(C(CC2CC2)n2cc(-c3cnn(C)c(=O)c3)cn2)[n+]([O-])cc1-c1c(C#N)ccc(Cl)c1F (single isomer, unassigned)
# rank by pIC50, ascending (min first) List the labels according to the requested ordering.
I, V, II, IV, III

(I) COC(=O)N(C)CC(c1ccc(-c2c(-n3cnnn3)ccc(Cl)c2F)c[n+]1[O-])n1cc(-c2ccnc(C(F)(F)F)c2)cn1 (single isomer, unassigned)
(II) CC(=O)Nc1cnc(C(F)(F)F)cc1-c1cnn(C(CC2CC2)c2ccc(-c3c(-n4cnnn4)ccc(Cl)c3F)c[n+]2[O-])c1 (single isomer, unassigned)
Returns the identifier with the smallest measured pIC50 among I and II . Indicate which entry you chose by stating its label.
II
(II: 6.46, I: 7.44)

(1) [O-][n+]1cc(-c2cc(Cl)ccc2-n2cnnn2)ccc1C(Cc1ccc(Cl)cc1)n1cc(-c2ccncc2F)cn1 (centres unmarked)
(2) O=C(O)c1ccc(-c2cnn(C(Cc3ccc(-c4ccccc4)cc3)c3ccc(-c4cc(Cl)ccc4-n4cnnn4)c[n+]3[O-])c2)cc1 (centres unmarked)
(3) NC(=O)c1ccc(-c2cnn(C(CC(=O)N3CCCC3)c3ccc(-c4c(-n5cc(C(F)(F)F)nn5)ccc(Cl)c4F)c[n+]3[O-])c2)cc1F (centres unmarked)
(4) Cn1ncnc1-c1cnn([C@H](CCOC(F)F)c2ccc(-c3c(-n4cnnn4)ccc(Cl)c3F)c[n+]2[O-])c1
(5) COC(=O)Nc1ccc(-c2cnn(C(CC3CC3C(=O)N3CCCC(c4ccccc4)C3)c3ccc(-c4c(-n5cnnn5)ccc(Cl)c4F)c[n+]3[O-])c2)cc1 (centres unmarked) [Example P222]
Put the items in sequence by pIC50, from largest down. List the labels according to the requested ordering.
2, 4, 1, 3, 5

(P) CCC(c1ccc(-c2c(-n3cnnn3)ccc(Cl)c2F)c[n+]1[O-])n1cc(-c2ccc(NC(=O)OC)cc2)cn1 (single isomer, unassigned)
(Q) Cn1nnc(F)c1-c1cnn(C(CC2CC2)c2ccc(-c3c(-n4cnnn4)ccc(Cl)c3F)c[n+]2[O-])c1 (centres unmarked) [Example P744]
Returns the identifier with the smallest measured pIC50 among P and Q . Indicate which entry you chose by stating its label.
P
(P: 7.06, Q: 7.31)
